target: SARS-CoV-2 spike protein receptor binding domain (RBD2) (SARS-CoV-2, UniProt P0DTC2 319-537); test: SPR sandwich binning, ligand F07
Each entry below lists one item and its recorded normalized analyte binding to RBD2 held by the immobilized ligand value.
# respond with the number and nothing more

Below, 4 binders whose answers are already recorded.
- Binder: "H05 IgG1 (antibody, V domains shown, also called H5; HO5) VH: QVQLVQSGAEVKKPGSSVKVSCKASGGTFSSYAISWVRQAPGQGLEWMGGIIPIFGTANYAQKFQGRVTITADESTSTAYMELSSLRSEDTAVYYCARSIFGVVIISHADGYYYGMDVWGQGTTVTVSS VL: SYVLTQPPSVSVAPGQTARITCGANNIGRISVHWYQQKPGQAPVLVVYDDSDRPSGIPERFSGSNFGNTATLTISRVEAGDEADYYCQVWDSYSDHVIFGGGTKLTVL"
  Measurement: 0.9
- Binder: "B04 IgG1 (antibody, V domains shown) VH: QVQLVESGAEVKKPGASVKVSCKASGYTFTRYYMHWVRQAPGQGLEWMGIINPSGGTTSYAQKFQGRVTMTRDTSTSTVYMELSSLRSEDTAVYYCARSFGELTSFDYWGQGTLVTVSS VL: SYVLTQPPSVSVAPGKTARITCGGNNIGIRSVHWYQQKPGQAPVLVIYYDSDRPSGIPERFSGSKSGNTATLTISRVEAGDEADYYCQVWDSSSDHPVFGGGTKLTVL"
  Measurement: 0.05
- Binder: "G07 IgG1 (antibody, V domains shown) VH: QVQLVQSGAEVKKPGESLKISCKGSGYSFTSYWIGWVRQMPGKGLEWMGIIYPGDSDIRYSPSFQGQVTISADKSFSSAYLQWSSLKASDTAMYYCARLGATGAFDIWGQGTTVTVSS VL: QSVLIQPPSASGTPGQRVTISCSGSNSNFGSNSVSWYQQRPGTAPKLLIEGNNQRPSGVPERFSGSKSGTSASLAISGLQSEDEAEYSCASWDDSLNAFVFGPGTKLTVL"
  Measurement: 0.08
- Binder: "E08 IgG1 (antibody, V domains shown) VH: QVQLVQSGAEVKKPGSSVKVSCKASGGTFSSYAISWVRQAPGQGLEWMGGIIPIFGTANYAQKFQGRVTITADESTSTAYMELSSLRSEDTAVYYCARASGRWLQFWHYYGMDVWGQGTTVTVSS VL: SYVLTQPPSVSVAPGKTARITCGGNNIGWKSVHWYQQKPGQAPVLVVYDDSDRPSGIPERFSGSNSGNTATLTISRVEAGDEADYYCQVWDSSSDLVVFGGGTKLTVL"
  Measurement: 1.32

Data request: Would you kindly share the measured normalized analyte binding to RBD2 held by the immobilized ligand for F07 IgG1 (antibody, V domains shown) VH: QVQLVQSGAEVKKPGSSVRVSCKVSGYTFTGYYMHWVRQAPGQGLEWMGIINPSGGSTSYAQKFQGRVTMTRDTSTSTVYMELSSLRSEDTAVYYCARVRVGASDAFDIWGQGTMVTVSS VL: SYVLTQPPSVSVAPGQTARITCGGNNIGSKSVHWYQQKPGQAPVLVVYDDSDRPSGIPERFSGSNSGNTATLIISRVEAGDEADYYCQVWDSSSVHYVFGTGTKLTVL ?
Data returned: 0.07

Each recorded value in this set is attributed to patent US12018066.
